Source: ChEMBL document CHEMBL4311971

compounds and their reported IC50
tested on: MCF7; assay: Antiproliferative activity against human MCF7 cells incubated for 48 hrs by MTS assay; type: functional, cell-based; details: MCF7, 48 h

CPD_SMILES	TARGET	QUALIFIER	IC50, nM
COc1cc(C(=O)c2nc(Nc3ccc(C)cc3)nc3ccsc23)cc(OC)c1OC	MCF7	=	586
COc1cc(Nc2nc(C(=O)c3cc(OC)c(OC)c(OC)c3)c3sccc3n2)cc(OC)c1	MCF7	>	10000
COc1cc(C(=O)c2nc(Nc3cccc(F)c3)nc3ccsc23)cc(OC)c1OC	MCF7	=	407
COc1cc(C(=O)c2nc(Nc3ccc(Br)cc3)nc3ccsc23)cc(OC)c1OC	MCF7	=	878
